Listed here: items and their measured log10 IC50.
# test-system: recombinant human DAO (diamine oxidase) (Homo sapiens)
# Construct: purchased R&D systems
# Sequence (P19801 20-751): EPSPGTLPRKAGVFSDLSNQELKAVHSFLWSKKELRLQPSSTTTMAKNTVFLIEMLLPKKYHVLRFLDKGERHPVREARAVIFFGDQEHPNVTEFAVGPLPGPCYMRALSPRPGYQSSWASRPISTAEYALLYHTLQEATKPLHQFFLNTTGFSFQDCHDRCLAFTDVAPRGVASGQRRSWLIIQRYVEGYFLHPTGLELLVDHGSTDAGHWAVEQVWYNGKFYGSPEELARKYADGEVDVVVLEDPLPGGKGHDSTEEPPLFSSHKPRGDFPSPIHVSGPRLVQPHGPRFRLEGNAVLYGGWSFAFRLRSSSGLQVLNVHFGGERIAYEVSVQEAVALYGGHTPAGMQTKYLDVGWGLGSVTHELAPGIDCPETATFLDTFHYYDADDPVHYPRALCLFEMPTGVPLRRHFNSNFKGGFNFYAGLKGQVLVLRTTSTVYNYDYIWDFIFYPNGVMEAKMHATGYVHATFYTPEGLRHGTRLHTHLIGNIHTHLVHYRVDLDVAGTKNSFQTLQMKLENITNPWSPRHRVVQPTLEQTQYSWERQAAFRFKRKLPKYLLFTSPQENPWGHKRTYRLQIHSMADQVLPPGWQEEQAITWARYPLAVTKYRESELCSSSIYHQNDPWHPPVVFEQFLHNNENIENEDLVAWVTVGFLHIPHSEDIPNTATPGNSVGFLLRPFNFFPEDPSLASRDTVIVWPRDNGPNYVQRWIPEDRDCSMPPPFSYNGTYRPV
# assay-overview: Activity on recombinant human DAO, Amplex Red method, 1 mM putrescine substrate
# Assay type: biochemical
# condition-set: recombinant human DAO, 1 mM putrescine substrate; read-out: Inhibitory Activity (IC50, nM) DAO
Where a name gives a salt, the structure may show the parent alone.
assay-metric: log10 IC50 (log10 of the value in nM)

INSERT INTO results (compound, test_system, recorded_result) VALUES
  ('NC/C(=C\F)Cn1ncn(-c2cc(C#Cc3cccnc3)ccn2)c1=O [Example 245, hydrochloride]', 'recombinant human DAO (diamine oxidase) (Homo sapiens)', 1.04),
  ('NC/C(=C\F)Cn1ncn(-c2cccc(-c3ccc4c(c3)NC(=O)OC4)n2)c1=O [Example 200, hydrochloride]', 'recombinant human DAO (diamine oxidase) (Homo sapiens)', 0.20),
  ('COc1ccc(C#Cc2cccc(-n3cnn(C/C(=C/F)CN)c3=O)n2)cn1', 'recombinant human DAO (diamine oxidase) (Homo sapiens)', 1.15),
  ('CC(=O)Nc1cc(-c2cnc(-n3cnn(C/C(=C/F)CN)c3=O)s2)ccn1', 'recombinant human DAO (diamine oxidase) (Homo sapiens)', -1.07),
  ('NC/C(=C\F)Cn1ncn(-c2ncc(-c3ccc4sc(N)nc4c3)cc2F)c1=O [Example 164, hydrochloride]', 'recombinant human DAO (diamine oxidase) (Homo sapiens)', 0.15),
  ('NC/C(=C\F)Cn1ncn(-c2cccc(/C=C/c3cnc4c(c3)NC(=O)CO4)n2)c1=O [Example 241, hydrochloride]', 'recombinant human DAO (diamine oxidase) (Homo sapiens)', 0.00),
  ('NC/C(=C\F)Cn1ncn(-c2cccc(C#Cc3ccc4c(n3)OCCN4)n2)c1=O', 'recombinant human DAO (diamine oxidase) (Homo sapiens)', 1.53),
  ('NC/C(=C\F)Cn1ncn(-c2ncc(-c3ccc(-c4nnc[nH]4)cc3)s2)c1=O', 'recombinant human DAO (diamine oxidase) (Homo sapiens)', -0.62),
  ('NC/C(=C\F)Cn1ncn(-c2cccc(-c3cccc4c3oc3ccccc34)n2)c1=O [Example 203, hydrochloride]', 'recombinant human DAO (diamine oxidase) (Homo sapiens)', 0.48),
  ('NC/C(=C\F)Cn1ncn(-c2cc(-c3ccc4sc(N)nc4c3)ccn2)c1=O', 'recombinant human DAO (diamine oxidase) (Homo sapiens)', 0.77);
